These entries and their values trace back to paper PMC10397247.

Molecular target: T1, 4H485-AA
T1 chain: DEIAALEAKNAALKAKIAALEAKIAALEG
Assay: two-hybrid library CCmax;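 note: natural log of median RNA to DNA barcode read ratio; higher means stronger binding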
Conditions: mean of both orientations
reportedMetric: interaction score

Worked cases, interaction score given:
• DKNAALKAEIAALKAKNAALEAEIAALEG [4H3697-AA] = -0.973
• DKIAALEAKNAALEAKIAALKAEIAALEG [4H2473-AA] = 0.85
• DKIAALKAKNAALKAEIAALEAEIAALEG [4H3009-AA] = 1.22
• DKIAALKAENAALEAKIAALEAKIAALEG [4H2725-AA] = 1.94

1 = DEIAALEAKNAALKAEIAALKAEIAALKG [4H458-AA]
2 = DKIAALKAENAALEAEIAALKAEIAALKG [4H2698-AA]
3 = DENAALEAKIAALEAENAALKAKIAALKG [4H1310-AA]
4 = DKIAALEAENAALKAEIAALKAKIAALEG [4H2253-AA]
Query string: Please give the order of these binders when sorted by interaction score, largest value leading. Write the labels out in the order the request specifies.
Result string: 2, 4, 3, 1
